target: mKv1.3 (Mus musculus, UniProt P16390); assay: Selectivity patch clamp, L929 cells expressing mKv1.3
Sequence (P16390 whole entry): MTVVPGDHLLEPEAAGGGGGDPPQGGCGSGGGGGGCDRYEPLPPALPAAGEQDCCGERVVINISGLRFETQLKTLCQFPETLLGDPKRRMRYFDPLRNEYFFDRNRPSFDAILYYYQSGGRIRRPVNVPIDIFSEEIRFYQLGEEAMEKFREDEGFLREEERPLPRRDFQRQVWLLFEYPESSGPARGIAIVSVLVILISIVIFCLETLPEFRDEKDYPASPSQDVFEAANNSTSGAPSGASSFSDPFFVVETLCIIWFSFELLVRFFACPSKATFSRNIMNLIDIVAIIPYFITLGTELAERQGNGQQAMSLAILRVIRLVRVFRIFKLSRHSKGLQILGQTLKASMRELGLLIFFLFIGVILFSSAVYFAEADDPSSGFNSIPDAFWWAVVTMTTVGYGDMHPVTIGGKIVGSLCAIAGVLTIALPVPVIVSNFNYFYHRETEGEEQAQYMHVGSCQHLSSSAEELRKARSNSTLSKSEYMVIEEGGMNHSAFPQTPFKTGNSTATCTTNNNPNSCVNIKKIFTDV

Structure: Clc1ccccc1C(c1ccccc1)(c1ccccc1)n1cccn1
Tested target: mKv1.3 (Mus musculus, UniProt P16390)
Kd (µM): 5

====

test: Hydrolytic stability by HPLC; conditions: artificial stomach fluid (DAB 9), pH 1

Compound: Clc1ccccc1C(c1ccccc1)(c1ccccc1)n1cccn1 [Compound T34]
half-life: ~45 min

====

molecular target: human IKCa1 channel (Homo sapiens); assay: cell-based; conditions: read-out: Kd for block of IKCa1; hIKCa1 in COS-7 cells; reduction of slope conductance at −80 mV; 1 μM free Ca++ in pipette
Value kind: Kd (µM)

Structure: NC(c1ccccc1)(c1ccccc1)c1ccccc1F
Value kind: Kd
Result number: 2
--
Structure: NC(c1ccccc1)(c1ccccc1)c1ccccc1Cl
Value kind: Kd
Result number: 5
--
Structure: C[n+]1ccn(C(c2ccccc2)(c2ccccc2)c2ccccc2Cl)c1
Value kind: Kd
Result number: 10
--
Structure: NC(c1ccccc1)(c1ccccc1)c1ccc(F)cc1
Value kind: Kd
Result number: 5
